Measured pKd, listed per entry for reference.
Molecular target: T1, PUF4 RNA-binding domain (Saccharomyces cerevisiae, UniProt P25339 537-888)
T1 sequence: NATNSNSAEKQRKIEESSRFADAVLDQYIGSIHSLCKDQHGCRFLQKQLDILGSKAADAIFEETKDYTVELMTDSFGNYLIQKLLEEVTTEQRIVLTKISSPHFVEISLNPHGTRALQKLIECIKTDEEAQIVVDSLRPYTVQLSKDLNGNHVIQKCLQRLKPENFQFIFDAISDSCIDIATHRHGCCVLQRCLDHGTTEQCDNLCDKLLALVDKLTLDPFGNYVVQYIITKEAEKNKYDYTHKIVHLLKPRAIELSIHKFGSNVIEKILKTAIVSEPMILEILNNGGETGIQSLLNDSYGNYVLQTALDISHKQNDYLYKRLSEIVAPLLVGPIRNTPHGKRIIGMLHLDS
Experiment: Mg; RNA-MaP; 20 mM Na-HEPES pH 7.4, 30 mM KOAc, 0.75 mM MgCl2, 0.1% Tween-20, 5% glycerol, 0.1 mg/mL BSA, 2 mM DTT; 25 C; 0.0125-409.6 nM protein
Details: tags: N-His6-TEV cleaved; C-SNAP kept, Cy3B-labelled; label: tethered on chip by stalled RNA polymerase
pKd is defined as minus the log10 of a concentration measured in mol/L.

// solved cases for pKd follow
BINDER	pKd
ACAAACUCUAUAUAUAAUACAAAC (ssRNA) [Id_ii_S3_P3E.3_K3.2_C3.2_[C-2T]_[T-1C]_H3.2_A3.1_F3.1_T3.2_[T9A]_[A10T]]	7.14
Ic_S4_P4E.1_K4.1_C4.1_H4.1_A4.1_[T5C]_[A6T]_F4.1_[T8A]_[A9C]_T4.1 (ssRNA) RNA: UUUGACAACUGAUCGUUCUUUCUUGUACUUACUUCUUUCUCGAUCAGUUGUCUUU	6.96
Ie_S4_P3E.2_K3.1_C3.2_H3.1_[+2CCT]_A3.1_F3.1_T3.2 (ssRNA) RNA: UUUGACAACUGAUCGUUCUUUCUCUUGCCUUAUAUAUAUUCUUUCUCGAUCAGUUGUCUUU	7.39
UCUCUUUGUACCAUUUCUCUU (ssRNA) [Ic_S1_P4E.1_K4.1_C4.1_H4.1_A4.1_[T5C]_[A6C]_[T7A]_F4.1_[A9T]_T4.1]	8.04
Id_ii_S4_P4E.2_K4.1_C4.2_[C-2T]_H4.1_A4.1_F4.1_T4.2_[G10T]_[T11G] (ssRNA) RNA: UUUGACAACUGAUCGUUCUUUCUUUUGUAUAUUAUGUUCUUUCUCGAUCAGUUGUCUUU	9.51

Request: Quick check: pKd of Ic_S2_P5E.1_K5.1_C5.1_H5.1_A5.1_[T5G]_[A7C]_F5.1_[T9G]_[A10T]_T5.1 (ssRNA) RNA: UUUGAUUAAUAUGAUAUCGUUCUUUCUUGUAGUCUGUUUCUUUCUCGAUAUCAUAUUAAUCUUU ?
Response: 7.22

Request: And Id_ii_S2_P3E.3_K3.2_C3.2_H3.2_A3.1_F3.1_T3.2_[T9A] (ssRNA) RNA: UUUGAUUAAUAUGAUAUCGUUCUUUCUCUUAUAUAUAAAUUCUUUCUCGAUAUCAUAUUAAUCUUU ?
Response: 6.40

Request: And UCUCUUCUUGUAUAUACUUCUCUU (ssRNA) [Id_ii_S1_P3E.2_K3.1_C3.2_H3.1_A3.1_F3.1_T3.2_[T9C]_[A10T]] ?
Response: 8.15

Request: And UCUCUUUUUGUAUAUAUUUCUCUU (ssRNA) [Id_ii_S1_P3E.2_K3.1_C3.2_[C-2T]_H3.1_A3.1_F3.1_T3.2_[A10T]] ?
Response: 8.18

Data credit: paper PMC9352680
